- assay-details: cells
- Type: functional, cell-based
- reported-conditions: Homo sapiens, LoVo/DX, 72 h
- Description: Antiproliferative activity against human Lovo/DX cells assessed as inhibition of cell proliferation incubated for 72 hrs by SRB assay
pIC50: −log10 of the molar value.
Decide using pIC50: a value greater than or equal to 7 is t, a smaller one is f.

{"compound": "COc1cc2c(c(OC)c1OC)-c1ccc(SC)c(=O)cc1[C@@H](NCc1ccc(C)cc1)CC2", "class-name": "t"}
{"compound": "COc1cc2c(c(OC)c1OC)-c1ccc(SC)c(=O)cc1[C@@H](NCc1ccccc1)CC2", "class-name": "t"}
{"compound": "CCCCCCCCCCCCN[C@H]1CCc2cc(OC)c(OC)c(OC)c2-c2ccc(SC)c(=O)cc21", "class-name": "f"}
{"compound": "COc1cc2c(c(OC)c1OC)-c1ccc(SC)c(=O)cc1[C@@H](NCc1ccncc1)CC2", "class-name": "t"}
{"compound": "COc1cc2c(c(OC)c1OC)-c1ccc(SC)c(=O)cc1[C@@H](NCC(C)C)CC2", "class-name": "t"}
{"compound": "COc1cccc2c1C(=O)c1c(O)c3c(c(O)c1C2=O)C[C@@](O)(C(=O)CO)C[C@@H]3O[C@H]1C[C@H](N)[C@H](O)[C@H](C)O1 [DOXORUBICIN]", "class-name": "f"}
{"compound": "COc1cc2c(c(OC)c1OC)-c1ccc(SC)c(=O)cc1[C@@H](NCCC(C)C)CC2", "class-name": "t"}
{"compound": "COc1cc2c(c(OC)c1OC)-c1ccc(SC)c(=O)cc1[C@@H](NCc1cccc(CN[C@H]3CCc4cc(OC)c(OC)c(OC)c4-c4ccc(SC)c(=O)cc43)n1)CC2", "class-name": "f"}
{"compound": "COc1cc2c(c(OC)c1OC)-c1ccc(SC)c(=O)cc1[C@@H](NC/C=C/c1ccccc1)CC2", "class-name": "f"}
{"compound": "COc1cc2c(c(OC)c1OC)-c1ccc(SC)c(=O)cc1[C@@H](NCc1ccc(F)cc1)CC2", "class-name": "t"}
